# maps each entry to its inhibition
# ASSAY_PROTOCOL: growth inhibition of non-replicating M. tuberculosis (AID 488890);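 further: plate controls were DMSO cells for no effect and high antibiotic wells for full effect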
# CONDITION_CONTEXT: Mycobacterium tuberculosis non-replicating, at 25 µM, stronger effect = higher value
Out of some 320,000 compounds screened, about 1,300 (0.41%) were called active. Not shown: some 3% with an inconclusive outcome. A selection follows. Potency and affinity values are given separately.
Write it as a number; the unit % goes unstated.

Please review the entries below; each comes with its answer.
NS(=O)(=O)c1ccc(Nc2ccc([N+](=O)[O-])c3nonc23)cc1 = 66.5
CCCc1cc(=O)[nH]c(SCC(=O)c2cc(C)n(CC(F)(F)F)c2C)n1 = 6.27

We now examine a further compound.
Task: inhibition for "O=C(O)c1cc(-c2ccccc2)nc2ccccc12" ?
Output: -4.94
